Values from patent US20220119517A1

- target_system: T1, human Claudin18.1 (CLDN18.1), full length, on cells (human, UniProt P56856 1-261)
- T1 construct: HEK293-CLDN18.1 cells carry a fusion with green fluorescent protein (ZsGreen); CHO-K1-CLDN18.1 cells carry pcDNA3.1-CLDN18.1; The cell line is named under assay; also called CLDN18.1-FL; HEK293-CLDN18.1 cells
- test: FACS on CHO-K1-CLDN18.1 cells
result_type: MFI (CLDN18.1) (MFI)
# value in MFI; strip the unit string

| binder | observed |
| --- | --- |
| 3CHI (antibody, V domains shown, Human-murine chimeric antibody with the constant region of human IgG1; also called chimeric antibody of S5H3B6; original 3CHI antibody) VH: EVKLVESGGGLVQPGGSLKLSCAASGFTFSDYGMAWVRQAPRKGPEWVAFISNLAYSIYYADTVTGRFTISRENAKNTLYLEMSSLRSEDTAMYYCARLGYGNSFAYWGQGTLVTVSA VL: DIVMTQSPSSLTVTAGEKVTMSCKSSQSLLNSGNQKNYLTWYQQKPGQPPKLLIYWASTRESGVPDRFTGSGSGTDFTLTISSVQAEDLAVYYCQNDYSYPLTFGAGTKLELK | 76 |
| 330CHI (antibody, human IgG1, V domains shown, chimeric with the constant region of human IgG1; also called chimeric antibody 330CHI) VH: EVKLVESGGGLVQPGGSLKLSCAASGFGFSDYGMAWVRQAPRKGPEWVAFISNSAYSIYYADTVTGRFTISRENAKNTLYLEMSSLRSEDTAMYYCARLGRGNSFAYWGQGTLVTVSA VL: DIVMTQSPSSLTVTAGEKVTMSCKSSQSLLNSGNQKNYLTWYQQKPGQPPKLLIYWGSTRESGVPDRFTGSGSGTDFTLTISSVQAEDLAVYYCQNELFYPLTFGAGTKLELK | 49 |

For the binder 17CHI (antibody, V domains shown, Human-murine chimeric antibody with the constant region of human IgG1; also called chimeric antibody of C58B11E11) VH: EVQLQQSGPELVKPGASVKMSCKASGYTFTDYNMHWVKQSHGKSLEWIGYINPNNGGTSYNQKFKGKATLTVNKSSSTAYMELRSLTSEDSAVYYCARIYYGNSFAYWGQGTLVTVSA VL: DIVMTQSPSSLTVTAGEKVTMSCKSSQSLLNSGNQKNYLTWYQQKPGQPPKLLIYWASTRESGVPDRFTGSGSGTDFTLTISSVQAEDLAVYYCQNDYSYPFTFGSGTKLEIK , give its measured MFI (CLDN18.1) value. 14500

For the binder 303CHI (antibody, V domains shown, chimeric with the constant region of human IgG1) VH: EVKLVESGGGLVQPGGSLKLSCAASGFTFSRYGMAWVRQAPGKGPEWVAFISNSAYSIYYADTVTGRFTISRENAKNTLYLEMSSLRSEDTAMYYCARLGYGNSFAYWGQGTLVTVSA VL: DIVMTQSPSSLTVTAGEKVTMSCKSSQSLLNSGNQKNYLTWYQQKPGQPPKLLIYWGSTRESGVPDRFTGSGSGTDFTLTISSVQAEDLAVYYCQNDYSYPLTFGAGTKLELK , give its measured MFI (CLDN18.1) value. 85

For the binder 324CHI (antibody, human IgG1, V domains shown, chimeric with the constant region of human IgG1) VH: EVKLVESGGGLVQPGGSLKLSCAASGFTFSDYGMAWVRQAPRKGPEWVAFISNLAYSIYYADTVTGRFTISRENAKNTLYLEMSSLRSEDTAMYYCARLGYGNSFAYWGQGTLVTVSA VL: DIVMTQSPSSLTVTAGEKVTMSCKSSQSLLNSGNQKNYLTWYQQKPGQPPKLLIYWGSTRESGVPDRFTGSGSGTDFTLTISSVQAEDLAVYYCQNELFYPLTFGAGTKLELK , give its measured MFI (CLDN18.1) value. 248
